As shown below, each of these molecules has a reported pIC50 value.
Tested on: A375P
Measurement notes: Cell viability assay, A375P
Type: cell-based, human
Experimental conditions: skin melanoma; treated 2 days; mean ± SD (n = 3)
Remember, pIC50 is on a log scale: it is -log10 of the molar concentration.

{"Molecule": "N.N.[Cl][Pt][Cl] [Cisplatin, cisplatin]", "Target or test system": "A375P", "pIC50": 5.08}

We now examine a further molecule.
-- ask Look up pIC50 with A375P for this molecule: N.N.O=C([O-])C1(C(=O)[O-])CCC1.[Pt+2]
-- reply 4.64
